- test-target: APOL1 G2 (Homo sapiens, UniProt O14791, DEL388-389)
- Sequence (O14791 with tags, fused parts or gaps DEL388-389): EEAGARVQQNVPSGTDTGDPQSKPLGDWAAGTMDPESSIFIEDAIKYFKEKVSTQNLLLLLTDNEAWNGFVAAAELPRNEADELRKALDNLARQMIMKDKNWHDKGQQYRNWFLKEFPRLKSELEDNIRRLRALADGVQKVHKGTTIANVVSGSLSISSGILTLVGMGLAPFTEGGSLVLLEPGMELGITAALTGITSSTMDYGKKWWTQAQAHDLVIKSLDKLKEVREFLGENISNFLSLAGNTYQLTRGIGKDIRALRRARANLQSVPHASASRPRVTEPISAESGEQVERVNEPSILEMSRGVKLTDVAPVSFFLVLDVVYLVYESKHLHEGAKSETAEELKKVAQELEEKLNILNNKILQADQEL
- measurement-description: APOL1 G2 HEK293 rescue of cell death caused by overexpression of APOL1 (CellTiter-Glo)
- conditions: HEK293/T-REx APOL1 G2 clone #2, doxycycline induction, 17 hours, CellTiter-Glo luminescence; reversal of cell death; geometric mean of at least 2 assay runs
- Description: A HEK293 clonal cell line overexpressing APOL1 G2 (HEK293/T-REx APOL1 G2/clone #2) was maintained in 1×DMEM-GlutaMax (Gibco, 10569-010) media with 10% tetracycline-free FBS (Takara Bio USA, 631101), 5 μg/mL Blasticidin (Gibco, A1113903), and 100 μg/mL Zeocin (Invitrogen, R25001) in T75 flasks. […] The suspension was gently mixed, and cells were counted using a Countess Cell Counting Chamber (Invitrogen). […] Luminescence was measured on an Envision plate reader. […]
Please map values of EC50 to classes as shown: band A: < 200 nM; band B: ≥ 200 nM and < 400 nM; band C: ≥ 400 nM

Worked cases, answers included:
CS(=O)(=O)c1ccc(OC[C@@H]2CN(CCc3cc(Cl)cc(C#N)c3)CCN2)cc1C(F)(F)F: band B
CN=S(C)(=O)c1ccc(OC[C@@H]2CN(CCc3cccc(C#N)c3)C[C@H]2C)cn1 (single isomer, unassigned) [Compound 73]: band B
C[C@@H]1C[C@H](COc2ccc(S(C)(=O)=O)nc2)CN1CCc1cc(C#N)cc(C#N)c1: band A
CN=S(C)(=O)c1ccc(OC[C@H]2C[C@@H](C)N(C3CCc4ccc(C#N)cc4C3)C2)cc1 (single isomer, unassigned) [Compound 38]: band A
C[C@@H]1C[C@H](COc2ccc(S(C)(=O)=O)cc2)CN1C1CCc2c(C#N)cccc2C1 (single isomer, unassigned) [Compound 135]: band A
Cc1cc(OC[C@@H]2CN(CCc3cccc(C#N)c3)C[C@H]2C)cnc1S(C)(=O)=O: band A

## Task Which class does CC(Cc1cc(Cl)cc(C#N)c1)N1C[C@@H](COc2ccc(S(C)(=O)=O)cc2)C[C@H]1C (single isomer, unassigned) [Compound 10] fall in?
## Result band C

## Task Which class does C[C@@H]1CN(CC(O)c2cccc(C#N)c2)C[C@H]1COc1ccc(S(C)(=O)=O)nc1 (some centres unmarked) [Compound 104] fall in?
## Result band C

## Task Which class does C[C@@H]1C[C@H](COc2ccc(S(=O)(=O)CCCS(C)(=O)=O)cc2)CN1C1CCc2c(C#N)cc(Cl)cc2C1 (single isomer, unassigned) [Compound 44] fall in?
## Result band B

## Task Which class does C[C@@H]1CN(C2CCc3ccc(Cl)cc3C2)C[C@H]1COc1ccc(S(C)(=O)=O)cc1 (single isomer, unassigned) [Compound 15] fall in?
## Result band C

## Task Which class does Cc1cc(OC[C@H]2C[C@@H](C)N(CC(O)c3cccc(C#N)c3)C2)cnc1S(C)(=O)=O (single isomer, unassigned) [Compound 95] fall in?
## Result band C

## Task Which class does C[C@@H]1CN(CCc2cc(Cl)cc(C#N)c2)C[C@H]1COc1ccc(C2(S(C)(=O)=O)CC2)cc1 fall in?
## Result band A

## Task Which class does C[C@@H]1C[C@H](COc2ccc(S(C)(=O)=O)nc2)CN1CCc1cc(Cl)cc(C#N)c1 fall in?
## Result band A

Cited source for all entries: patent US20260055083A1
